Some molecules, each annotated with its measured IC50.
- Test Target: human PDHK2 (hPDHK2) (Homo sapiens (Human), UniProt Q15119)
- Experiment: Inhibitory action of PDHK activity in vitro (kinase reaction, residual PDH activity measured)
- Assay type: biochemical
- Protocol Conditions: read-out: PDHK inhibitory activity IC50
- Experimental: In the case of human PDHK2 (hPDHK2, Genbank Accession No. NM_002611), modified hPDHK2 cDNA wherein FLAG-Tag sequence is added to the N terminal by a polymerase linkage reaction was prepared based on hPDHK2 cDNA clone (pReceiver-M01/PDK2-GeneCopoeia), and cloned into a vector (pET17b-Novagen). The recombinant construct was transformed into Escherichia coli (DH5α-TOYOBO). The recombinant clones were identified, plasmid DNA was isolated and subjected to the DNA sequence analysis. […]
Recorded Endpoint: IC50

>>> print(df.to_string())
                                   molecule  result
0  Cn1cc(-c2cc(CO)cc3c2-c2ccccc2C3(O)C(F)(F)F)cn1 (stereo not shown) [compound 557]   77 nM
1  COC(=O)COc1cc(Br)c2c(c1)C(O)(C(F)(F)F)c1ccccc1-2 (single isomer, unassigned) [compound 451]  102 nM
2  NC(=O)C1CN(C(=O)c2ccc3c(c2)C(O)(C(F)(F)F)c2ccccc2-3)C1 (stereo not shown) [compound 123]  877 nM
3  CC(C)(C)n1cc(-c2cccc3c2-c2ccccc2C3(O)C(F)(F)F)cn1 (stereo not shown) [compound 523]   48 nM
